# Tested on: MT-2 cells
# measurement-parameters: human
property-name: CC50 (nM)
Write the answer as a number in nM, unit excluded.

[Q] Which CC50 value is on record for COc1cc(C)c(/C=C/C2NCCc3cc(OCc4ccccc4)c(OC)cc32)cc1OCc1ccccc1 (stereo not shown) ?
[A] 1100

----------
# System: HIV-1 NL4-3 RLuc
# experiment-notes: MT-2 spreading infection assay (inhibition of HIV-1 replication)
# measurement-parameters: MT-2 cells; from average values
property-name: SI (CC50/EC50)
No unit in the answer, please; the number alone is enough.

| molecule | measurement |
| --- | --- |
| COc1cc2c(cc1OCc1ccccc1)CCNC2/C=C/c1ccccc1C (centres unmarked) | 4.8 |
| COc1ccc(/C=C/C2NCCc3cc(OCc4ccccc4)c(OC)cc32)c(C)c1 (centres unmarked) | 66 |
| COc1cc(C)c(/C=C/C2NCCc3cc(OCc4ccccc4)c(OC)cc32)cc1OCc1ccccc1 (centres unmarked) | 14 |
| COc1cc(C)c(/C=C/C2NCCc3cc(OCc4ccccc4)c(OC)cc32)cc1OC (centres unmarked) | 61 |

[Q] Please give the measured SI (CC50/EC50) for this molecule: COc1ccc(/C=C/C2NCCc3cc(OCc4ccccc4)c(OC)cc32)cc1OCc1ccccc1 (centres unmarked)
[A] 23

----------
# Test system: HIV-1 NL4-3 RLuc
# experiment-notes: MT-2 spreading infection assay (inhibition of HIV-1 replication)
# measurement-parameters: MT-2 cells; from average values
property-name: SI (CC50/EC50)
Reply briefly: the number, and no unit.

| molecule | property-name | measurement |
| --- | --- | --- |
| COc1cc2c(cc1OCc1ccccc1)CCNC2/C=C/c1cccc(OCc2ccccc2)c1 (stereo not drawn) | SI (CC50/EC50) | 17 |

[Q] I have this molecule here, COc1ccc(/C=C/C2NCCc3cc(OCc4ccccc4)c(OC)cc32)cc1 (stereo not drawn) , and I need its recorded SI (CC50/EC50).
[A] 37

----------
Readings of pEC50 for the listed compounds
# Tested on: HIV-1 NL4-3 RLuc
# experiment-notes: MT-2 spreading infection assay (inhibition of HIV-1 replication)
# measurement-parameters: Human immunodeficiency virus 1, NL43, MT2
In textbook form, pEC50 equals minus log to base ten of the concentration in mol/L.

Example entries begin here.
| compound | pEC50 |
| --- | --- |
| COc1ccc(/C=C/C2NCCc3cc(OCc4ccccc4)c(OC)cc32)cc1OCc1ccccc1 (stereo not shown) | 6.79 |
| COc1cc2c(cc1OCc1ccccc1)CCNC2/C=C/c1cccc(OCc2ccccc2)c1 (stereo not shown) | 6.61 |
| COc1cc2c(cc1OCc1ccccc1)CCNC2/C=C/c1ccccc1 (stereo not shown) | 5.81 |

Shifting focus to the compound that follows.
[Q] Which pEC50 value belongs to COc1cc2c(cc1OCc1ccccc1)CCNC2/C=C/c1ccccc1C (stereo not shown) ?
[A] 6.12

----------
# experiment-notes: in vitro
# measurement-parameters: human, CC50 (μM)
This section presents molecules with their documented CC50 values.
Record the value in µM, omitting the unit from your answer.

// known answers, use as guide
| molecule | property-name | measurement |
| --- | --- | --- |
| COc1cc2c(cc1OCc1ccccc1)CCNC2/C=C/c1cccc(OCc2ccccc2)c1 (centres unmarked) | CC50 | 4.1 |
| COc1cc2c(cc1OCc1ccccc1)CCNC2/C=C/c1ccccc1C (centres unmarked) | CC50 | 3.6 |
| COc1ccc(/C=C/C2NCCc3cc(OCc4ccccc4)c(OC)cc32)cc1 (centres unmarked) | CC50 | 21 |

Let us examine a further case.
[Q] Param item = COc1ccc(/C=C/C2NCCc3cc(OCc4ccccc4)c(OC)cc32)cc1OCc1ccccc1 (centres unmarked) ; retrieve measured CC50.
[A] 3.8
